- Tested on: oilseed rape (Brassica napus)
- PROCEDURE SUMMARY: Test C pre-/postemergence greenhouse herbicide test
- Type: in vivo
- CONDITION INFO: Oilseed Rape; Preemergence; 125 g ai/ha
QUANTITY MEASURED: Plant response rating
One number for each entry.

The cases that follow already have their Plant response rating on record.
INSERT INTO results (smiles_structure, measured_result) VALUES
  ('CCOc1cc(=O)n(-c2ccc(F)cc2)nc1Cc1ccnc(C(F)(F)F)c1', 95),
  ('COc1cc(=O)n(-c2ccc(C(F)(F)F)cc2)nc1Cc1ccnc(C(F)(F)F)c1', 100),
  ('Cc1cc(=O)n(-c2ccc(C(F)(F)F)cc2)nc1Cc1ccnc(C(F)(F)F)c1', 100),
  ('COc1cc(=O)n(-c2ccc(F)cc2)nc1Cc1ccnc(C(F)(F)F)c1', 100);

Proceed to the following item.
-- ask // lookup Plant response rating for `Cc1cc(=O)n(-c2ccc(F)cc2)nc1Cc1ccnc(C(F)(F)F)c1`
-- reply 100
